Biological target: CYP3A4 (Homo sapiens)
Sequence (P08684 whole entry): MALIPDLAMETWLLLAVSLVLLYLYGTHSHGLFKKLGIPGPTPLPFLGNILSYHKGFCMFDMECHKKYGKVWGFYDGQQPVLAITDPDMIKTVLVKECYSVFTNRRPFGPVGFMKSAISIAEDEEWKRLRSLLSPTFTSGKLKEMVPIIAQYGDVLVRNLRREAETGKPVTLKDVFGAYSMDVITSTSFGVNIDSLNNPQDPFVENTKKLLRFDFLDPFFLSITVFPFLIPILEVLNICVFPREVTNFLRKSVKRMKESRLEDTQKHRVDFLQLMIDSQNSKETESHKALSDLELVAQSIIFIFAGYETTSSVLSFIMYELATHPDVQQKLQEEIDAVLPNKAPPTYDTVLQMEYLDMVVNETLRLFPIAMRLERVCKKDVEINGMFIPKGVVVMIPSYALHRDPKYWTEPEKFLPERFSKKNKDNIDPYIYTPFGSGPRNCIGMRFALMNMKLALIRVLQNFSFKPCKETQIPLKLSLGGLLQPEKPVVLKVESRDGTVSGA
Measured endpoint: IC50

Request: Looking for the measured IC50 of `C#Cc1cn([C@@H]2S[C@H](CO)[C@@H](O)[C@H]2O)c2ncnc(N)c12` , can you help?
Response: > 20 µM

----------
Target: TRKA (Homo sapiens, UniProt P04629)
Sequence (P04629 33-796): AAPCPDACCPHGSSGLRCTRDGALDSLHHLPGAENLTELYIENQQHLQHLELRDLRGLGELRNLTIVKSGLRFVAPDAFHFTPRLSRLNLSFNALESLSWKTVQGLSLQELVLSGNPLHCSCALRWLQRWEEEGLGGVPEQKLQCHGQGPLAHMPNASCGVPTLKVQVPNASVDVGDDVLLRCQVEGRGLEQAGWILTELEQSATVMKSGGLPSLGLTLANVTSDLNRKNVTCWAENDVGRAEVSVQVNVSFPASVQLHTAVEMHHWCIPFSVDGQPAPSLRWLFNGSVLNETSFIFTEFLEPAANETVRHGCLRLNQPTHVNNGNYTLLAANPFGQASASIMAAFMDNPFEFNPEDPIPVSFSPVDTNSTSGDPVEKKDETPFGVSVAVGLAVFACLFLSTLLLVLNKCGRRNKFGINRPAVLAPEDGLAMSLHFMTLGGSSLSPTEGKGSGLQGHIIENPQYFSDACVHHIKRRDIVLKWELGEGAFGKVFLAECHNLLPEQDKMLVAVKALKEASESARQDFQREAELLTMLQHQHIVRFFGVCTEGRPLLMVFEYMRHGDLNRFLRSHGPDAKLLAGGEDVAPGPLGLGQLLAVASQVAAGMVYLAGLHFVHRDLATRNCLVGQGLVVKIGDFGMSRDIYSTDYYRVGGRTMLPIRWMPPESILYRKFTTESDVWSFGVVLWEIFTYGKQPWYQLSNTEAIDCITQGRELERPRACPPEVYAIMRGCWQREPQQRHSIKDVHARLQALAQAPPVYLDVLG
The following molecules are listed with their measured IC50 values.
Numbers only; they are read as nM.

Past entries and their recorded results:
CC#Cc1cn([C@@H]2S[C@H](CO)[C@@H](O)[C@H]2O)c2ncnc(N)c12 [Compound 1h]
293
Nc1ncnc2c1c(-c1ccccc1)cn2[C@@H]1S[C@H](CO)[C@@H](O)[C@H]1O [Compound 1d]
157
CCC#Cc1cn([C@@H]2S[C@H](CO)[C@@H](O)[C@H]2O)c2ncnc(N)c12 [Compound 1i]
573

Request: Test system TRKA (Homo sapiens, UniProt P04629); read-out IC50; what value for Nc1ncnc2c1c(-c1cccs1)cn2[C@@H]1S[C@H](CO)[C@@H](O)[C@H]1O [Compound 1b] ?
Response: 11

Request: Test system TRKA (Homo sapiens, UniProt P04629); read-out IC50; what value for Cc1ccc(NC(=O)Nc2cc(C(F)(F)F)ccc2F)cc1Nc1ccc2c(c1)NC(=O)/C2=C\c1ccc[nH]1 [GNF 5837, reference compound] ?
Response: 177

Request: Test system TRKA (Homo sapiens, UniProt P04629); read-out IC50; what value for CC(C)(C)C#Cc1cn([C@@H]2S[C@H](CO)[C@@H](O)[C@H]2O)c2ncnc(N)c12 [Compound 1j] ?
Response: 958

----------
Observed pKi, system DYRK1A (Homo sapiens, UniProt Q13627).
Field pKi (float): negative decimal logarithm of the concentration in molar.

Nc1ncnc2c1c(-c1ccccc1)cn2[C@@H]1S[C@H](CO)[C@@H](O)[C@H]1O
6.15
Cc1nccc(-c2cn(Cc3ccccc3)c3cnccc23)n1 [AZ Dyrk1B 33, reference compound]
7.55

Request: Looking for the measured pKi of `CCC#Cc1cn([C@@H]2S[C@H](CO)[C@@H](O)[C@H]2O)c2ncnc(N)c12` , can you help?
Response: 5.22

Request: Looking for the measured pKi of `C#Cc1cn([C@@H]2S[C@H](CO)[C@@H](O)[C@H]2O)c2ncnc(N)c12` , can you help?
Response: 7.07

----------
Target: CK1δ (Homo sapiens, UniProt P48730)
Sequence (P48730 whole entry): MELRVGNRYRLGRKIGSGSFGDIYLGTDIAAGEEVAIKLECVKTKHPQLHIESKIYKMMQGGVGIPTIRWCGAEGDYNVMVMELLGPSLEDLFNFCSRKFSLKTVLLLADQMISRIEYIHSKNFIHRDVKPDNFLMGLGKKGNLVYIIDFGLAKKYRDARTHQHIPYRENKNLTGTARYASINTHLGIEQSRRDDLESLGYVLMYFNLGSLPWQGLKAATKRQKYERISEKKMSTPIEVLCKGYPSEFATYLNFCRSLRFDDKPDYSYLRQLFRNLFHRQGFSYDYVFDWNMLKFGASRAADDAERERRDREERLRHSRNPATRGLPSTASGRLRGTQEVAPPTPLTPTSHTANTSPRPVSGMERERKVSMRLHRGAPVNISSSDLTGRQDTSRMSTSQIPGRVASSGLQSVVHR
Measured endpoint: pIC50
Field pIC50 (float): negative decimal logarithm of the concentration in molar.

Request: Test system CK1δ (Homo sapiens, UniProt P48730); read-out pIC50; what value for `CCC#Cc1cn([C@@H]2S[C@H](CO)[C@@H](O)[C@H]2O)c2ncnc(N)c12` ?
Response: 6.37

Request: Test system CK1δ (Homo sapiens, UniProt P48730); read-out pIC50; what value for CCS(=O)(=O)Nc1ccc(-c2cn(C3SC(CO)C(O)C3O)c3ncnc(N)c23)cc1 (stereo not shown) ?
Response: 6.04

Request: Test system CK1δ (Homo sapiens, UniProt P48730); read-out pIC50; what value for `C#Cc1cn([C@@H]2S[C@H](CO)[C@@H](O)[C@H]2O)c2ncnc(N)c12` ?
Response: 7.10

Request: Test system CK1δ (Homo sapiens, UniProt P48730); read-out pIC50; what value for `CC(C)(C)C#Cc1cn([C@@H]2S[C@H](CO)[C@@H](O)[C@H]2O)c2ncnc(N)c12` ?
Response: 5.88

Request: Test system CK1δ (Homo sapiens, UniProt P48730); read-out pIC50; what value for `C=Cc1cn([C@@H]2S[C@H](CO)[C@@H](O)[C@H]2O)c2ncnc(N)c12` ?
Response: 7.11

Request: Test system CK1δ (Homo sapiens, UniProt P48730); read-out pIC50; what value for `CC#Cc1cn([C@@H]2S[C@H](CO)[C@@H](O)[C@H]2O)c2ncnc(N)c12` ?
Response: 6.01

All figures here come from paper PMC8708872.
